src = patent US20250136607A1

Assay target: Protein arginine deiminase 4 (PAD4) (Homo sapiens, UniProt Q9UM07)
Sequence (Q9UM07 whole entry): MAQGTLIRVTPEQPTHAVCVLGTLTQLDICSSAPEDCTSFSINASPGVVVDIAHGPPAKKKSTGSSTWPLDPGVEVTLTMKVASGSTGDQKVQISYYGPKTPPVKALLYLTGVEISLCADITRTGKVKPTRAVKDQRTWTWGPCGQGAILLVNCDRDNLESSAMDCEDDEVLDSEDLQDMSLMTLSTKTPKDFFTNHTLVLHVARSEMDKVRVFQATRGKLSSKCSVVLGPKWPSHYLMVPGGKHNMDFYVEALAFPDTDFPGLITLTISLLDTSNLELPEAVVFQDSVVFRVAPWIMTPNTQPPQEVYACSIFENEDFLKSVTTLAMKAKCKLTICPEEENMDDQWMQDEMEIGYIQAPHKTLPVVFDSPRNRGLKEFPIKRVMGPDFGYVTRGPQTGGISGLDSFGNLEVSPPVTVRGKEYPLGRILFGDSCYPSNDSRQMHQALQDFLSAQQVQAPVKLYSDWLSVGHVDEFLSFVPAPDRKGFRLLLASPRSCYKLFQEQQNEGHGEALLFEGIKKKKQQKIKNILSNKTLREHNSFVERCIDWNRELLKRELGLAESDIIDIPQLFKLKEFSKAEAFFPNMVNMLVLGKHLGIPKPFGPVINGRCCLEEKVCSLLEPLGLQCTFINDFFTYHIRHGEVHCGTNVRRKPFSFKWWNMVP
Assay: PAD4 ammonia release assay
Type: biochemical
Settings: PAD4 ammonia release assay, BAEE substrate, 60 min at RT; read-out: Average IC50 Abs
pIC50: −log10 of the molar value.
Assay metric: pIC50

Entry CCC1CN(CCCO)c2cccc3cc(-c4nc5cc(C(=O)N6C[C@H](N)C[C@@H](F)C6)cc(F)c5n4CC)n1c23 (stereo partly drawn) [Example 99] ; pIC50 = 6.30 to 7.00

Per the record, COc1cc(C(=O)N2C[C@H](N)C[C@@H](F)C2)cc2nc(-c3cc4cccc5c4n3CCN5CCCO)n(CC(F)(F)F)c12 [Example 23] has pIC50 of 6.30 to 7.00

// CCC1CN(CCC(C)(C)O)c2cccc3cc(-c4nc5cc(C(=O)N6C[C@H](N)C[C@@H](F)C6)cc(OC)c5n4C)n1c23 (stereo partly drawn) [Example 83] : pIC50 value = 6.30 to 7.00
